What IC50 was measured for each of the following?
Target: Protein skinhead-1 (Caenorhabditis elegans)
Sequence (P34707 whole entry): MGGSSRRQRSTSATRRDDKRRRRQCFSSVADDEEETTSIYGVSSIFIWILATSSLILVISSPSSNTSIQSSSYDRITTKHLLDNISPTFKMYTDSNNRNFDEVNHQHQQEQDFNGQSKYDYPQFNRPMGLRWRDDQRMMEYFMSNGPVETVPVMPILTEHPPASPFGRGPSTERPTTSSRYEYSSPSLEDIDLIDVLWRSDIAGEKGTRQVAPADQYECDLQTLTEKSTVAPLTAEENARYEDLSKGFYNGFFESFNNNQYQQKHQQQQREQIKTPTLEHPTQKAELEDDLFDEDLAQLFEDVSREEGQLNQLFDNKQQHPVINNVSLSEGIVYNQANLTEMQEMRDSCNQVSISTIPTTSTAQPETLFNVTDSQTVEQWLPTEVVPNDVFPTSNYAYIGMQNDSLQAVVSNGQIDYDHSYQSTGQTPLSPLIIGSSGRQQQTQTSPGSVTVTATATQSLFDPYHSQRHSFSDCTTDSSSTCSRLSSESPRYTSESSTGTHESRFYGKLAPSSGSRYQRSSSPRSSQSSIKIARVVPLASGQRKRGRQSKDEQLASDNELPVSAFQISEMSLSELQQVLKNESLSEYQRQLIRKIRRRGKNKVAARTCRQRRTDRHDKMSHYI
Assay type: functional
Activity calls are given as the source filed them.

Solved cases below.
Compound: Oc1cc(-c2ccccc2Cl)c2c(n1)CCC2
IC50: > 100 µM (inactive)
//
Compound: O=C1CN(C(=O)c2ccc(Br)o2)C(c2ccccc2)c2cc(Br)ccc2N1 (configuration not stated)
IC50: 83.6 µM (inactive)

Your task in this section: give IC50 for each listed record.
1. COCCNC(=O)c1ccc(-c2ccc(OC)cc2C)c2ccoc12
2. COCCCNC(=O)c1cn(CC(C)C)c(=O)c2c1c1ccccc1n2C
3. CSc1ccc(C2Nc3ccccc3-c3cc(C)nn32)cc1 (configuration not stated)
4. O=C(Nc1nc(SCc2ccc(F)cc2)ns1)c1ccco1
5. Cc1cccc(C(=O)Nc2ccc(C(=O)/C=C/c3cccs3)cc2)c1

Solution:
["> 100 µM (inactive)", "> 100 µM (inactive)", "> 100 µM (inactive)", "70.5 µM (inactive)", "> 100 µM (inactive)"]
